Recorded measurements of LD50, one per entry
protocol.text: Acute toxicity (lethal dose) in Swiss mice, parenteral and oral
run.parameters: mouse, in vivo, oral, read-out: LD50 P.O.

q: Suppose we examine the compound CNS(=O)(=O)c1cc(OC)c(OC)c(C(=O)NCC2CCCN2C)c1 (centres unmarked) [Compound 1] ; what LD50 value has been reported?
a: 992 to 1050 mg/kg

q: Subsequent entry: CNS(=O)(=O)c1cc(OC)c(OC)c(C(=O)NCC2CCCN2C)c1 (single isomer, unassigned) [Compound 2]
a: 1080 to 1150 mg/kg
